test: acute toxicity, single oral administration; conditions: rat, in vivo; single oral administration to rats
Measured LD50 of individual entries

// solved cases for LD50 follow
{"Item smiles": "O=C(OC1CCCCC1)c1ncn2c1[C@@H]1CCCN1C(=O)c1c(Br)cccc1-2", "LD50": "> 5000 mg/kg"}
{"Item smiles": "O=C(OCC1CC1)c1ncn2c1[C@@H]1CCCN1C(=O)c1c(Br)cccc1-2", "LD50": "625 to 1250 mg/kg"}
{"Item smiles": "O=C(OC1CCCCC1)c1ncn2c1[C@@H]1CCCN1C(=O)c1c(I)cccc1-2", "LD50": "> 5000 mg/kg"}

Shifting focus to the compound that follows.
Lookup: Item under review: O=C(OCC1CC1)c1ncn2c1[C@@H]1CCCN1C(=O)c1c(Cl)cccc1-2 . Reported LD50?
Found: 1000 to 2000 mg/kg
